These data points were gathered from patent US20240425529A1.

# assay summary: Animal pharmacokinetic study in rats, single gavage
# Format: in vivo
# conditions: rat, po; male rats, single gavage 5 mg/kg, plasma
measured endpoint: Tmax
The number alone won't do; follow it with the unit.

Consider the following illustrative entries.
O=C(N[C@@H](Cc1coc2ccccc12)B(O)O)C(=O)N1CCOCC1 [Ex. 5]: 70.2 min
O=C(Nc1cc(Cl)ccn1)C(=O)N[C@@H](Cc1coc2ccccc12)B(O)O [Ex. 49]: 55.2 min
O=C(Nc1ccccn1)C(=O)N[C@@H](Cc1coc2ccccc12)B(O)O [Ex. 12]: 34.8 min
O=C(Nc1nc2ccccc2s1)C(=O)N[C@@H](Cc1coc2ccccc12)B(O)O [Ex. 27]: 200 min
O=C(Nc1nccs1)C(=O)N[C@@H](Cc1coc2ccccc12)B(O)O [Ex. 25]: 25.2 min
Cc1cnc(NC(=O)C(=O)N[C@@H](Cc2coc3ccccc23)B(O)O)s1 [Ex. 32]: 40.2 min

Now for the compound whose Tmax we want.
Suppose we examine the compound O=C(Nc1cnccn1)C(=O)N[C@@H](Cc1coc2ccccc12)B(O)O [Ex. 9] ; what Tmax value has been reported?
160 min

----------
Readings of IC50 for the listed compounds
# target or test system: LMP7 (Homo sapiens)
# Construct: using MOLT-4 cell lysate as the enzyme source of LMP7; endogenous in cells; host or cells: MOLT-4 (human acute lymphoblastic leukemia cells)
# assay summary: Cytological inhibitory activity on LMP7 in MOLT-4 cells
# Assay type: cell-based
# conditions: incubation for 2 hours with compound, read-out: Cytological activity data LMP7 Activity (MOLT-4Cell)
The number alone won't do; follow it with the unit.

Consider the following illustrative entries.
O=C(Nc1cccc2c1OCC2)C(=O)N[C@@H](Cc1coc2ccccc12)B(O)O [Ex. 28]: 3.84 nM
COc1ncccc1NC(=O)C(=O)N[C@@H](Cc1coc2ccccc12)B(O)O [Ex. 45]: 22.7 nM
COc1ccc2nc(NC(=O)C(=O)N[C@@H](Cc3coc4ccccc34)B(O)O)sc2c1 [Ex. 26]: 0.73 nM
CC1(C)[C@@H]2C[C@H]3OB([C@H](Cc4coc5ccccc45)NC(=O)C(=O)N[C@@H]4C[C@H]5CC[C@@H]4O5)O[C@@]3(C)[C@H]1C2 [Ex. 51]: 3.88 nM
Cc1cnc(NC(=O)C(=O)N[C@@H](Cc2coc3ccccc23)B(O)O)s1 [Ex. 32]: 1.72 nM

Suppose we examine the compound O=C(Nc1nc2ccccc2s1)C(=O)N[C@@H](Cc1coc2ccccc12)B(O)O [Ex. 27] ; what IC50 value has been reported?
1.58 nM

Suppose we examine the compound O=C(N[C@@H](Cc1coc2ccccc12)B(O)O)C(=O)N[C@@H]1C[C@H]2CC[C@@H]1O2 [Ex. 1] ; what IC50 value has been reported?
5.94 nM

Suppose we examine the compound O=C(Nc1cnc2ccccc2n1)C(=O)N[C@@H](Cc1coc2ccccc12)B(O)O [Ex. 47] ; what IC50 value has been reported?
2.32 nM

Suppose we examine the compound O=C(N[C@@H](Cc1coc2ccccc12)B(O)O)C(=O)N1CC2COCC2C1 (some centres unmarked) [Ex. 29] ; what IC50 value has been reported?
15.9 nM

Suppose we examine the compound O=C(Nc1cnccn1)C(=O)N[C@@H](Cc1coc2ccccc12)B1OC(=O)c2ccccc2O1 [Ex. 20] ; what IC50 value has been reported?
0.32 nM

Suppose we examine the compound O=C(N[C@@H](Cc1coc2ccccc12)B(O)O)C(=O)N1CCCC(F)(F)C1 [Ex. 56] ; what IC50 value has been reported?
6.39 nM

Suppose we examine the compound O=C(Nc1cnccn1)C(=O)N[C@@H](Cc1coc2ccccc12)B(O)O [Ex. 9] ; what IC50 value has been reported?
4.82 nM

Suppose we examine the compound O=C(N[C@@H]1CCOC1)C(=O)N[C@@H](Cc1coc2ccccc12)B(O)O [Ex. 44] ; what IC50 value has been reported?
15.9 nM

Suppose we examine the compound O=C(Nc1cnccn1)C(=O)N[C@@H](Cc1coc2ccccc12)B1OCCCO1 [Ex. 70] ; what IC50 value has been reported?
0.91 nM

Suppose we examine the compound Cn1ccnc1NC(=O)C(=O)N[C@@H](Cc1coc2ccccc12)B(O)O [Ex. 37] ; what IC50 value has been reported?
111 nM

Suppose we examine the compound O=C(Nc1cc(Cl)ccn1)C(=O)N[C@@H](Cc1coc2ccccc12)B(O)O [Ex. 49] ; what IC50 value has been reported?
1.9 nM

Suppose we examine the compound CC1(C)[C@@H]2C[C@H]3OB([C@H](Cc4coc5ccccc45)NC(=O)C(=O)Nc4ccc(F)cc4F)O[C@@]3(C)[C@H]1C2 [Ex. 54] ; what IC50 value has been reported?
5.33 nM

----------
Readings of pIC50 for the listed compounds
# target or test system: LMP7 (Homo sapiens, UniProt P28062)
# Construct: using MOLT-4 cell lysate as the enzyme source of LMP7; endogenous in cells; host or cells: MOLT-4 (human acute lymphoblastic leukemia cells)
# assay summary: Enzymatic inhibitory activity on LMP7 (MOLT-4 cell lysate, Ac-ANW-AMC substrate)
# Assay type: biochemical
# conditions: 1 hour pre-incubation
The scale used: pIC50 is minus the common logarithm of the concentration in molar units.

Consider the following illustrative entries.
O=C(N[C@@H](Cc1coc2ccccc12)B(O)O)C(=O)N1CC2COCC2C1 (some centres unmarked): 8.11
CNC(=O)C(=O)N[C@@H](Cc1coc2ccccc12)B(O)O: 7.57
O=C(NCC1CCCO1)C(=O)N[C@@H](Cc1coc2ccccc12)B(O)O (some centres unmarked): 8.45
C[C@@H]1COB([C@H](Cc2coc3ccccc23)NC(=O)C(=O)Nc2cnccn2)O1: 8.84
Cc1cnc(NC(=O)C(=O)N[C@@H](Cc2coc3ccccc23)B(O)O)s1: 8.34

Suppose we examine the compound COC(=O)C(=O)N[C@@H](Cc1coc2ccccc12)B1O[C@@H]2CC3C[C@@H](C3(C)C)[C@]2(C)O1 ; what pIC50 value has been reported?
8.37

Suppose we examine the compound O=C(Nc1cnccn1)C(=O)N[C@@H](Cc1coc2ccccc12)B1OC(=O)c2ccccc2O1 ; what pIC50 value has been reported?
8.92

Suppose we examine the compound COc1ccc2nc(NC(=O)C(=O)N[C@@H](Cc3coc4ccccc34)B(O)O)sc2c1 ; what pIC50 value has been reported?
8.31

Suppose we examine the compound Cc1csc(NC(=O)C(=O)N[C@@H](Cc2coc3ccccc23)B(O)O)n1 ; what pIC50 value has been reported?
8.54

Suppose we examine the compound O=C(N[C@@H](Cc1coc2ccccc12)B(O)O)C(=O)N[C@@H]1C[C@H]2CC[C@@H]1O2 ; what pIC50 value has been reported?
8.12

----------
# target or test system: LMP7 (Homo sapiens, UniProt P28062)
# Construct: using MOLT-4 cell lysate as the enzyme source of LMP7; endogenous in cells; host or cells: MOLT-4 (human acute lymphoblastic leukemia cells)
# assay summary: Enzymatic inhibitory activity on LMP7 (MOLT-4 cell lysate, Ac-ANW-AMC substrate)
# Assay type: biochemical
# conditions: 1 hour pre-incubation
# Source text: LMP7 is a catalytic subunit of immunoproteasomes. In this experiment, an enzymatic detection platform was established using its hydrolytic enzyme activity and used for compound activity detection. […] We established an enzymatic detection method for compound inhibition on LMP7 using MOLT-4 cell lysate as the enzyme source of LMP7 and detected the compound inhibitory activity (half inhibitory concentration, IC50). […]
pIC50: −log10 of the molar value.
Param threshold (8) applies to pIC50; output t when value >= threshold, f when value < threshold.

O=C(Nc1cnccn1)C(=O)N[C@@H](Cc1coc2ccccc12)B1OCCCO1: t
O=C1CC[C@H](N2C(=O)c3ccc(N4CCN(CC5CCN(C(=O)C(=O)N[C@@H](Cc6coc7ccccc67)B(O)O)CC5)CC4)cc3C2=O)C(=O)N1: f

Has O=C(Nc1cc(Cl)ccn1)C(=O)N[C@@H](Cc1coc2ccccc12)B(O)O a recorded pIC50 greater than or equal to 8?
t

----------
# assay summary: Animal pharmacokinetic study in rats, single gavage
# Format: in vivo
# conditions: rat, po; male rats, single gavage 5 mg/kg, plasma
Readings of Cmax for the listed compounds
Just the number in ng/mL, nothing appended.

Consider the following illustrative entries.
Cc1cnc(NC(=O)C(=O)N[C@@H](Cc2coc3ccccc23)B(O)O)s1: 1090
O=C(N[C@@H](Cc1coc2ccccc12)B(O)O)C(=O)N1CCOCC1: 3800
O=C(Nc1nccs1)C(=O)N[C@@H](Cc1coc2ccccc12)B(O)O: 7710

Suppose we examine the compound O=C(Nc1cc(Cl)ccn1)C(=O)N[C@@H](Cc1coc2ccccc12)B(O)O ; what Cmax value has been reported?
1430

Suppose we examine the compound O=C(Nc1nc2ccccc2s1)C(=O)N[C@@H](Cc1coc2ccccc12)B(O)O ; what Cmax value has been reported?
1910

Suppose we examine the compound O=C(Nc1ccccn1)C(=O)N[C@@H](Cc1coc2ccccc12)B(O)O ; what Cmax value has been reported?
3930

Suppose we examine the compound O=C(Nc1cnccn1)C(=O)N[C@@H](Cc1coc2ccccc12)B(O)O ; what Cmax value has been reported?
3880
